These entries and their values trace back to the supplement of paper PMC11451515.

Test system: SEM cells
PROCEDURE_DETAILS: cell viability relative to DMSO control; higher = less cytotoxic
TEST_PARAMETERS: HPLM + 10% dialyzed FBS; 48 h; 0.0632 µM
ASSAY_METRIC: cell viability
Please format your answer as a value with the unit trailing.

Here are 4 compounds together with their reported answers.
1. NC1(Cc2ccc(Cl)cc2)CCN(c2ncnc3[nH]ccc23)CC1; 92.8%
2. COC1=NC(=NC(=C1N\C2=N\CCN2)Cl)C; 99.9%
3. COC1=CC2=NC=CC(=C2C=C1)OC3=CN=C(NC(=O)C/4=C(C)/N(CC(C)(C)O)N(C4=O)C5=CC=CC=C5)C=C3; 89.4%
4. CC1CCC(C(=O)N(c2cc(C#CC(C)(C)C)sc2C(=O)O)C2CCC(O)CC2)CC1 (stereo not drawn); 98%

Qu. Tell us which cell viability value is on record for `COC1=CC=CC2=C1C(=NC(=N2)C3=CC=CS3)NN4C(=O)\C=C(C)/C4=O`
Ans. 72.4%

Qu. Tell us which cell viability value is on record for CN1[C@@H]2CC[C@H]1CC(OC(=O)c1c[nH]c3ccccc13)C2 (stereo partly drawn)
Ans. 130%

Qu. Tell us which cell viability value is on record for `CC(=O)O[C@H]1C[C@@H]2CC[C@@H]3[C@H](CC[C@@]4(C)[C@H]3C[C@H]([N+]3(C)CCCCC3)[C@@H]4OC(C)=O)[C@@]2(C)C[C@@H]1[N+]1(C)CCCCC1`
Ans. 108%

Qu. Tell us which cell viability value is on record for `C#Cc1cccc(Nc2ncnc3cc(OCCOC)c(OCCOC)cc23)c1`
Ans. 102%
